Assay: Tissue distribution in mice after oral administration
Format: in vivo, female C57Bl/6 mice
Settings: female, C57Bl/6, mouse, liver, oral 10 mg/kg, 7 h, N = 2, read-out: Liver concentration
Experimental: Limited tissue (liver, intestine) distribution studies were conducted in female C57Bl/6 mice ([…]) at 0.5, 1, 2, 3, 5, 7, and 24 hours following oral administration of compound of Formula 1 at a dose of 10 mg/kg formulated as a solution in 20% HP-β-CD. […] All tissues (except plasma) were homogenized in sterile water and compound of Formula I concentrations were determined using LC-MS/MS. […]
measurement_name: concentration at 7 h (ng/g)

INSERT INTO assay_data (structure_smiles_string, measured) VALUES
  ('CC(C)(O)CNC(=O)Cc1nc2cnc3[nH]ccc3c2n1[C@H]1CC[C@H](CC#N)CC1', 24);

---

Assay: Serum and colonic concentrations in IL-12/IL-18 studies S-1 and S-2
Format: in vivo, C57BL/6 mice
Conditions: C57BL/6, mouse, colon, po, 10 mg/kg, S-2; mice, oral 10 mg/kg; mean±SEM; read-out: Colon 4 h post dosing
Procedure: C57BL/6 mice (6 to 8 weeks old) were randomized by weight and assigned to various treatment groups for each of two studies. Mice were challenged intraperitoneally with a combination of IL-12 (250 ng) and IL-18 (1 μg). […] Serum levels were measured at 30 minutes and 4 hours (terminal) after dosing. […] Colon drug levels were measured 4 hours after dosing. […] Data are presented as mean±SEM; N=3-7/group. BLOQ, below limit of quantification; min, minutes; h, hour(s). […]
measurement_name: concentration at 4 h (ng/g)

INSERT INTO measurements (structure_smiles_string, measured) VALUES
  ('CC(C)(O)CNC(=O)Cc1nc2cnc3[nH]ccc3c2n1[C@H]1CC[C@H](CC#N)CC1', 10100);

---

assay: Tissue distribution in rats after oral administration; type: in vivo, male Sprague-Dawley rats; conditions: male, Sprague-Dawley, rat, jejunum lumen content, PO 25 mg/kg, 2 h, average, N = 3, read-out: Jejunum Content concentration
measurement_name: concentration at 2 h (µg/mL)

INSERT INTO assay_data (structure_smiles_string, measured) VALUES
  ('CC(C)(O)CNC(=O)Cc1nc2cnc3[nH]ccc3c2n1[C@H]1CC[C@H](CC#N)CC1', 90.7);

---

assay: Serum and colonic concentrations in IL-12/IL-18 studies S-1 and S-2; type: in vivo, C57BL/6 mice; conditions: C57BL/6, mouse, serum, po, 25 mg/kg, S-2; mice, oral 25 mg/kg; mean±SEM; read-out: Serum 30 min post dosing
measurement_name: concentration at 30 min (nM)

INSERT INTO assay_data (molecule, measurement_name, measured) VALUES
  ('CC(C)(O)CNC(=O)Cc1nc2cnc3[nH]ccc3c2n1[C@H]1CC[C@H](CC#N)CC1 [Compound of Formula I]', 'concentration at 30 min', 70.5);

---

test: Tissue distribution in rats after oral administration; type: in vivo, male Sprague-Dawley rats; settings: male, Sprague-Dawley, rat, colon lumen content, PO 25 mg/kg, 3 h, average, N = 3, read-out: Colon Content concentration
measurement_name: concentration at 3 h

INSERT INTO results (molecule, measured) VALUES
  ('CC(C)(O)CNC(=O)Cc1nc2cnc3[nH]ccc3c2n1[C@H]1CC[C@H](CC#N)CC1 [Compound of Formula I]', '304 µg/mL');

The measured values listed here are drawn from patent US12390451B2.
